Values compiled from ChEMBL document CHEMBL4513216.

Listed here are compounds together with their documented INHIBITION.
# System: Plasmodium berghei
# EXPERIMENT DESCRIPTION: Screen against P. berghei liver stage (PbLuc), transformed with Luciferase, at 10uM
# Type: functional, HepG2
# RUN PARAMETERS: tested at 10 uM
The campaign covered roughly 69,000 compounds. About 8,600 (12%) showed an effect of 50% or more. Many of the other results were omitted from the sample, so strong results are more common in it than they were.
Write the answer as a number in %, unit excluded.

{"columns": ["COMPOUND", "UNIT ANNOTATION", "INHIBITION"],
 "data": [
  ["Cc1cccc(CN2CCc3ncnc(C)c3CC2)n1", "%", 6.8],
  ["c1ccc(CN2CCc3ncnc(-c4ccsc4)c3CC2)nc1", "%", 19.9],
  ["Cc1nc(CN2CCc3ncnc(-c4ccccc4)c3CC2)cs1", "%", 6.6]
]}

State its INHIBITION for this compound: "Cc1nc(CN2CCN(c3nc4c(s3)c(C)nn4C)CC2)cs1"
73.9

Give recorded INHIBITION. "Cc1ccc2oc(CN3CCC(C(=O)O)(n4ccnc4)CC3)c(C)c2c1"
-23.5

---

Consider the following molecules and their measured INHIBITION readings.
# Test system: Plasmodium berghei
# EXPERIMENT DESCRIPTION: Screen against P. berghei liver stage (PbLuc), transformed with Luciferase, at 10uM
# Format: functional, HepG2
# RUN PARAMETERS: tested at 10 uM
Screen size: about 69,000 compounds; about 8,600 (12%) showed an effect of 50% or more. The entries come from a sample that favours strong results as a whole.
Return type: number; implicit unit %.

Use the examples below as a reference point.
{"columns": ["MOLECULE", "TARGET DESC", "INHIBITION / %"],
 "data": [
  ["COc1cccn(CC(=O)N2CCCC3(CCCO3)CC2)c1=O (stereo unspecified)", "Plasmodium berghei", -2.61],
  ["Cn1ncc2c1CN(Cc1ccc(F)cc1)CC2COCC1CC1 (stereo unspecified)", "Plasmodium berghei", 8.67],
  ["COc1ccc(C(=O)CCc2nc(C3CC3)no2)cc1F", "Plasmodium berghei", -19.1],
  ["CC(C)(C)CN1CCOC[C@H]1c1nc(-c2cccc(F)c2)c[nH]1", "Plasmodium berghei", 64.8],
  ["CCC(Nc1cccc(OC)c1)C(=O)NCc1ccc2c(c1)OCO2 (stereo unspecified)", "Plasmodium berghei", 36.4],
  ["CCn1nc(C)cc1S(=O)(=O)N1CCC2(CCCN(C(C)C)C2=O)C1 (stereo unspecified)", "Plasmodium berghei", 58.6],
  ["COC1CCN(C(=O)CC2CCCC2)CC(=O)N(C)c2ccccc21 (stereo unspecified)", "Plasmodium berghei", 3.31],
  ["CCN(CC)C(=O)c1ccn(COc2c(Cl)cccc2Cl)n1", "Plasmodium berghei", 20.9]
]}

For CCn1nccc1S(=O)(=O)N1CCC2(CCCN(C(C)C)C2=O)C1 (stereo unspecified) , write its INHIBITION.
33

Answer with the recorded INHIBITION for the molecule listed here: "Cc1ccc(CN2CCCn3nnc(COCC4CC4)c3C2)s1"
23.3

For the molecule Cn1cc(CN2Cc3c(cnn3C)C(COCC3CC3)C2)cn1 (stereo unspecified) , give its measured INHIBITION value.
47.9
